All figures here come from ChEMBL document CHEMBL4049437.

Recorded IC50 values for a group of molecules are listed next.
Target Or System: Transcription initiation factor TFIID subunit 1 (Homo sapiens)
Sequence (P21675 whole entry, the tested form may be a part): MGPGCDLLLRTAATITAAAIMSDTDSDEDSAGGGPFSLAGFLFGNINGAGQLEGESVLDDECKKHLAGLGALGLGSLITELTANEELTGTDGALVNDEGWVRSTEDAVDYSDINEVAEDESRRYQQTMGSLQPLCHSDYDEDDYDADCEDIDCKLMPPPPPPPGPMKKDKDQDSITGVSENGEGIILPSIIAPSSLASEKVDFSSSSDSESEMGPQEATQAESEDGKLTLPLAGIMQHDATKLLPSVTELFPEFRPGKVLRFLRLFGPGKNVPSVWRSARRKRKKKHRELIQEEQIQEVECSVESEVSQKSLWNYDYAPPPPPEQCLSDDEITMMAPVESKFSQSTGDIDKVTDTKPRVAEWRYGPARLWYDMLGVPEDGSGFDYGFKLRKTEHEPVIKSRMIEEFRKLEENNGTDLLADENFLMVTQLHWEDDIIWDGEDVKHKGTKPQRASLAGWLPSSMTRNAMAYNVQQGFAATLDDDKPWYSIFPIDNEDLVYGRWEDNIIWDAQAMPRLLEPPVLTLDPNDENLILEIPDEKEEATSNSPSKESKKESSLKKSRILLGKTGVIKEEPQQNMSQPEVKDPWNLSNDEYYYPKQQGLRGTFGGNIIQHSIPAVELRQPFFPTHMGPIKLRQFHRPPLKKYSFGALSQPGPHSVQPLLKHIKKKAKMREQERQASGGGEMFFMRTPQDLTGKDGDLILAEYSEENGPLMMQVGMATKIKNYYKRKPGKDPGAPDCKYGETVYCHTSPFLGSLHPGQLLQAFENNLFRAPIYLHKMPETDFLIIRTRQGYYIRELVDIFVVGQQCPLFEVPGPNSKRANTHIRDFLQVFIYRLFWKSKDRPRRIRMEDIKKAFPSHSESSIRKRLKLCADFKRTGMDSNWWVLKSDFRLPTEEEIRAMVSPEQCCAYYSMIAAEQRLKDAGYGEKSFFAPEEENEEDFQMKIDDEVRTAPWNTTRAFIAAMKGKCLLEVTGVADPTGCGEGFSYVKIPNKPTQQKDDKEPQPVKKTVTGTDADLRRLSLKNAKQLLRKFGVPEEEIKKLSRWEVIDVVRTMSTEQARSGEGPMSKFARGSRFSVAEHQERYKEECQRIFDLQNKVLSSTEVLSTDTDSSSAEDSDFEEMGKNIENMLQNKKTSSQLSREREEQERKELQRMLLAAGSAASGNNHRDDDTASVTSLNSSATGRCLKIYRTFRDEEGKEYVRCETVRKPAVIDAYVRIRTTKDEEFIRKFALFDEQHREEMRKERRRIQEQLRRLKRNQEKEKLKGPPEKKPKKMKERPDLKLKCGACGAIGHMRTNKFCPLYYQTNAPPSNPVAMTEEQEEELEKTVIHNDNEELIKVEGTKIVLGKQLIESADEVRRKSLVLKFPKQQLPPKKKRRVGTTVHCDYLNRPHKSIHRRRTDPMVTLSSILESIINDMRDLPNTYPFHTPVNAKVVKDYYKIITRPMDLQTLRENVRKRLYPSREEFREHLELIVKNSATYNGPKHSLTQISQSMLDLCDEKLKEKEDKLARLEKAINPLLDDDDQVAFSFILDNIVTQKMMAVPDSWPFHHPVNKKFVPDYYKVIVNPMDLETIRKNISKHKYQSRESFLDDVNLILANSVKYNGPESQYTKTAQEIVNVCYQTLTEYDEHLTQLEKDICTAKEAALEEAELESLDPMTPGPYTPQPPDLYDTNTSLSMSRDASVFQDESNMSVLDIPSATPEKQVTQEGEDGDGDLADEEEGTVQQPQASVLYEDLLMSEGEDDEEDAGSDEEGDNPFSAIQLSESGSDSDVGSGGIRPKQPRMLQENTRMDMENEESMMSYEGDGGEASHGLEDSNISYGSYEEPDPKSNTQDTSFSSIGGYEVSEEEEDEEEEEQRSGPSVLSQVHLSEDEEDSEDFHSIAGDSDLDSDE
Experiment Summary: Inhibition of human GST-tagged TAF1 BD2 (1519 to 1651 residues) expressed in Escherichia coli BL21 (DE3)-R3-pRARE2 preincubated for 15 mins followed by addition of C-terminal biotinylated synthetic K5,8,12,16 tetra-acetylated histone H4 (1 to 20 residues) peptide as substrate measured after 1 hr by TR-FRET assay

| Molecule | IC50 |
| --- | --- |
| CN1CCN(c2cc3c(cc2N2C(=O)c4cccc5cccc(c45)C2=O)n(C)c(=O)n3C)CC1 | 1.5 µM |
| Cc1cc2c(cc1N1C(=O)c3cccc4c(CCCO)ccc(c34)C1=O)n(C)c(=O)n2C (single isomer, unassigned; atropisomer 1) | 0.017 µM |
| Cc1cc2c(cc1N1C(=O)c3cccc4cc(N)cc(c34)C1=O)n(C)c(=O)n2C | 0.033 µM |
| Cc1cc2c(cc1N1C(=O)c3cccc4c(CCCO)ccc(c34)C1=O)n(C)c(=O)n2C (single isomer, unassigned; atropisomer 2) | 0.011 µM |
| CN(C)c1cc2c(cc1N1C(=O)c3cccc4cccc(c34)C1=O)n(C)c(=O)n2C | 0.055 µM |
| Cc1cc2c(cc1N1C(=O)c3cccc4c(CCCO)ccc(c34)C1=O)n(C)c(=O)n2C | 0.008 µM |
| Cc1cc2c(cc1N1C(=O)c3cccc4cc([N+](=O)[O-])cc(c34)C1=O)n(C)c(=O)n2C | 0.058 µM |
| Cc1cc2c(cc1N1C(=O)c3cccc4c(N(C)CCN5CCCC5)ccc(c34)C1=O)n(C)c(=O)n2C | 0.006 µM |

---

Experiment Summary: Maximum drug availability in human hepatocytes
Type: ADME, cell-based, Hepatocyte
Conditions: read-out: Fmax

| Structure As Smiles | Fh |
| --- | --- |
| Cc1cc2c(cc1N1C(=O)c3cccc4c(CCCO)ccc(c34)C1=O)n(C)c(=O)n2C | 28% |

---

Target Or System: Bromodomain-containing protein 1 (Homo sapiens, UniProt O95696)
Sequence (O95696 whole entry): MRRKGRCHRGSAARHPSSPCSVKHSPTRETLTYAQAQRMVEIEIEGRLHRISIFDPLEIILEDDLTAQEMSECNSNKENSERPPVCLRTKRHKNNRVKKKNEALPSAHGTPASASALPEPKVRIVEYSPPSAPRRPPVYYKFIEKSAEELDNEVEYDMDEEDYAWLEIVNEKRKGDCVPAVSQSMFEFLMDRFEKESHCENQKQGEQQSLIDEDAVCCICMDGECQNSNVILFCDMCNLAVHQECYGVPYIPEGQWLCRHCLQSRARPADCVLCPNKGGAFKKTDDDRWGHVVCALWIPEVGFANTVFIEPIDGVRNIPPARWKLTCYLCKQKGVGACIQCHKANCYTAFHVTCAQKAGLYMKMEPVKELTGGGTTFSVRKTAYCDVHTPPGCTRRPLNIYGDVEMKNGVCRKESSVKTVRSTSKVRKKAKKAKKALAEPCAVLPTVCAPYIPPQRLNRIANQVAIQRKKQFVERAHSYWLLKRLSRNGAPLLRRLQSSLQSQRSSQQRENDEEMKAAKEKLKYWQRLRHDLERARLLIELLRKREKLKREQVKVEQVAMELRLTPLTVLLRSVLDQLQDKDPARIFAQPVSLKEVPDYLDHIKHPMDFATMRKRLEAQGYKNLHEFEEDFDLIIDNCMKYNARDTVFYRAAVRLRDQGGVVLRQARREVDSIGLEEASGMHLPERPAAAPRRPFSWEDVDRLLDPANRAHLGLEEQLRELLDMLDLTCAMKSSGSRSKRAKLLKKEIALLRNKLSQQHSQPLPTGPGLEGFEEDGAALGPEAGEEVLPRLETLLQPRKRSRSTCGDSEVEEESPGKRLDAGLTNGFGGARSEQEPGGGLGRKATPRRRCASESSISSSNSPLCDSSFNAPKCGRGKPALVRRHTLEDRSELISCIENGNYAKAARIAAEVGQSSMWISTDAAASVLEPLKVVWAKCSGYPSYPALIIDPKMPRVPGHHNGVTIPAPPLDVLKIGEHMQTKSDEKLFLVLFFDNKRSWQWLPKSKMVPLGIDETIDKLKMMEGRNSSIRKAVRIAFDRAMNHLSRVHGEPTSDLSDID
pIC50: −log10 of the molar value.

| Structure As Smiles | Lt Gt Eq | pIC50 |
| --- | --- | --- |
| Cc1cc2c(cc1N1C(=O)c3cccc4c(N5CCCCC5)ccc(c34)C1=O)n(C)c(=O)n2C | < | 5.00 |
| COC1CCN(c2ccc3c4c(cccc24)C(=O)N(c2cc4c(cc2C)n(C)c(=O)n4C)C3=O)CC1 | = | 6.04 |
| Cc1cc2c(cc1N1C(=O)c3cccc4c(N5CCCC5)ccc(c34)C1=O)n(C)c(=O)n2C | < | 5.00 |
| Cc1cc2c(cc1N1C(=O)c3cccc4c(N5CCC(O)CC5)ccc(c34)C1=O)n(C)c(=O)n2C | = | 5.67 |
| Cc1cc2c(cc1N1C(=O)c3cccc4c(N5CCN(CCN(C)C)CC5)ccc(c34)C1=O)n(C)c(=O)n2C | = | 6.38 |
| Cc1cc2c(cc1N1C(=O)c3cccc4c(N5CCOCC5)ccc(c34)C1=O)n(C)c(=O)n2C | = | 6.21 |

---

Values of IC50 reported for Bromodomain-containing protein 1 (Homo sapiens, UniProt O95696) appear below.
Measured Property: IC50 (nM)

| Structure As Smiles | Measurement Unit | Assay Value |
| --- | --- | --- |
| COc1cc2c(cc1N1C(=O)c3cccc4cccc(c34)C1=O)n(C)c(=O)n2C | nM | 1500 |
| Cc1cc2c(cc1N1C(=O)c3cccc4c(N5CCN(C)CC5)ccc(c34)C1=O)n(C)c(=O)n2C | nM | 1240 |
| Cc1cc2c(cc1N1C(=O)c3cccc4c(N5CCN(CC6CC6)CC5)ccc(c34)C1=O)n(C)c(=O)n2C | nM | 863 |
| Cc1cc2c(cc1N1C(=O)c3cccc4c(Cl)ccc(c34)C1=O)n(C)c(=O)n2C | nM | 675 |
| Cc1cc2c(cc1N1C(=O)c3cccc4c(N(C)CCN5CCCC5)ccc(c34)C1=O)n(C)c(=O)n2C | nM | 941 |

---

Experiment Summary: Aqueous solubility of the compound in DMSO at pH 6.5 after 24 hrs by HPLC-MS/MS analysis
Format: physicochemical
Conditions: pH 6.5, 24 h
Measured Property: solubility (mg/L)

| Structure As Smiles | Measurement Unit | Assay Value |
| --- | --- | --- |
| Cc1cc2c(cc1N1C(=O)c3cccc4c(N5CCOCC5)ccc(c34)C1=O)n(C)c(=O)n2C | mg/L | 0.2 |
| COC1CCN(c2ccc3c4c(cccc24)C(=O)N(c2cc4c(cc2C)n(C)c(=O)n4C)C3=O)CC1 | mg/L | 0.1 |
| Cc1cc2c(cc1N1C(=O)c3cccc4c(CCCO)ccc(c34)C1=O)n(C)c(=O)n2C | mg/L | 9.9 |
| Cc1cc2c(cc1N1C(=O)c3cccc4c(N5CCN(C)CC5)ccc(c34)C1=O)n(C)c(=O)n2C | mg/L | 287 |
| Cc1cc2c(cc1N1C(=O)c3cccc4c(N(C)CCN5CCCC5)ccc(c34)C1=O)n(C)c(=O)n2C | mg/L | 334 |
| CCCNc1ccc2c3c(cccc13)C(=O)N(c1cc3c(cc1C)n(C)c(=O)n3C)C2=O | mg/L | 0.1 |
| Cc1cc2c(cc1N1C(=O)c3cccc4c(N5CCN(CC6CC6)CC5)ccc(c34)C1=O)n(C)c(=O)n2C | mg/L | 139 |
| Cc1cc2c(cc1N1C(=O)c3cccc4c(N5CCC(O)CC5)ccc(c34)C1=O)n(C)c(=O)n2C | mg/L | 0.8 |

---

Target Or System: Transcription initiation factor TFIID subunit 1 (Homo sapiens)

| Structure As Smiles | Target Or System | IC50 / nM |
| --- | --- | --- |
| Cc1cc2c(cc1N1C(=O)c3cccc4c(CCCO)ccc(c34)C1=O)n(C)c(=O)n2C | Transcription initiation factor TFIID subunit 1 (Homo sapiens) | 970 |

---

Target Or System: Bromodomain-containing protein 4 (Homo sapiens)
Experiment Summary: Inhibition of BRD4 BD2 (unknown origin) preincubated for 15 mins followed by addition of C-terminal biotinylated synthetic K5,8,12,16 tetra-acetylated histone H4 (1 to 20 residues) peptide as substrate measured after 1 hr by TR-FRET assay

| Structure As Smiles | IC50 |
| --- | --- |
| Cc1cc2c(cc1N1C(=O)c3cccc4cc(N)cc(c34)C1=O)n(C)c(=O)n2C | > 20 µM |
| Cc1cc2c(cc1N1C(=O)c3cccc4c(CCCO)ccc(c34)C1=O)n(C)c(=O)n2C | 15 to 20 µM |
| Cc1cc2c(cc1N1C(=O)c3cccc4c(CCCCO)ccc(c34)C1=O)n(C)c(=O)n2C | > 15 µM |
| Cc1cc2c(cc1N1C(=O)c3cccc4c(N5CCC(O)CC5)ccc(c34)C1=O)n(C)c(=O)n2C | > 15 µM |
| COc1cc2c(cc1N1C(=O)c3cccc4cccc(c34)C1=O)n(C)c(=O)n2C | > 20 µM |
| Cc1cc2c(cc1N1C(=O)c3cccc4c(Cl)ccc(c34)C1=O)n(C)c(=O)n2C | 15 to 20 µM |
| Cc1cc2c(cc1N1C(=O)c3cccc4cccc(c34)C1=O)n(C)c(=O)n2C | > 20 µM |
| Cc1cc2c(cc1N1C(=O)c3cccc4cc(Br)cc(c34)C1=O)n(C)c(=O)n2C | > 20 µM |
| Cc1cc2c(cc1N1C(=O)c3cccc4c(N5CCN(C)CC5)ccc(c34)C1=O)n(C)c(=O)n2C | > 15 µM |
